Source listed as the RNAGym collection of RNA variant scans (doi:10.7554/elife.80360).

B1: CPEB3 Ribozyme (parent)
chain: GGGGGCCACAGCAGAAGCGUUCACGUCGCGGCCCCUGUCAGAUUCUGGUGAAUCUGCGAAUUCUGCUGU

Variants of: B1
Experiment: self-cleavage, relative activity (ratio to wild type); higher = more cleavage; co-transcriptional
MEASUREMENT_LABEL: self-cleavage
Keep the answer to the number alone.

Worked set:
C34U A42U    0.924
G5A C6U    0.189
G47C G56C    0.92
G48A G58A    0.961
G17C U21C    0.0625
G37U C45G    0.286
G14C U44A    0.392
A8C U20A    0.114

Sure, the documented self-cleavage for G11A U62A is 0.537

Sure, the documented self-cleavage for C32U G56U is 0.971

Sure, the documented self-cleavage for C34G G65U is 0.325

Sure, the documented self-cleavage for C18G U26A is 0.119
